- ASSAY REMARKS: Tmax in Sprague-Dawley rat at 10 mg/kg, ip measured after 24 hrs by LC-MS/MS analysis
- Assay type: ADME, organism-based
- STATED CONDITIONS: in vivo
Items are presented alongside their recorded Tmax.
Numeric answer only, unit min assumed.

{"COMPOUND": "CC1CC(C)CN(Cc2cc3c(cc2-c2cc4ccc5c(c4cn2)OCO5)OCO3)C1 (configuration not stated)", "UNIT OF MEASURE": "min", "TEST RESULT": 15}

Next:
Requested field: Tmax. Item: CCC1CCCC(C)N1Cc1cc2c(cc1-c1cc3ccc4c(c3cn1)OCO4)OCO2 (configuration not stated)
15

---

Items are presented alongside their recorded IC50 at 72 h.
- ASSAY REMARKS: Antiproliferative activity against human L02 cells incubated for 72 hrs
- Format: toxicity, cell-based

{"COMPOUND": "CC1CCN(Cc2cc3c(cc2-c2cc4ccc5c(c4cn2)OCO5)OCO3)CC1", "TEST RESULT": "34.9 µM"}
{"COMPOUND": "FC(F)(F)C1CCN(Cc2cc3c(cc2-c2cc4ccc5c(c4cn2)OCO5)OCO3)CC1", "TEST RESULT": "56.3 µM"}
{"COMPOUND": "FC1CCCN(Cc2cc3c(cc2-c2cc4ccc5c(c4cn2)OCO5)OCO3)CC1 (stereo not drawn)", "TEST RESULT": "> 100 µM"}

Requested field: IC50 at 72 h. Item: CC1CC(C)CN(Cc2cc3c(cc2-c2cc4ccc5c(c4cn2)OCO5)OCO3)C1 (stereo not drawn)
29.1 µM

Requested field: IC50 at 72 h. Item: `c1c(CN2CCCCC2)c(-c2cc3ccc4c(c3cn2)OCO4)cc2c1OCO2`
25.2 µM

Requested field: IC50 at 72 h. Item: `c1c(CN2CC3(CCC3)C2)c(-c2cc3ccc4c(c3cn2)OCO4)cc2c1OCO2`
> 100 µM

Requested field: IC50 at 72 h. Item: COc1ccc2cc3[n+](cc2c1OC)CCc1cc2c(cc1-3)OCO2 [BERBERINE]
> 100 µM

Requested field: IC50 at 72 h. Item: `c1c(CN2CC3(CCCCC3)C2)c(-c2cc3ccc4c(c3cn2)OCO4)cc2c1OCO2`
41.5 µM

Requested field: IC50 at 72 h. Item: COc1cc([C@@H]2c3cc4c(cc3[C@@H](O[C@@H]3O[C@@H]5CO[C@@H](C)O[C@H]5[C@H](O)[C@H]3O)[C@H]3COC(=O)[C@H]23)OCO4)cc(OC)c1O [ETOPOSIDE]
15.9 µM

Requested field: IC50 at 72 h. Item: CCC1CCCC(C)N1Cc1cc2c(cc1-c1cc3ccc4c(c3cn1)OCO4)OCO2 (stereo not drawn)
26.1 µM

---

- System: NCI-H209
- ASSAY REMARKS: Antiproliferative activity against human NCI-H209 cells incubated for 72 hrs
- Type: functional, cell-based
- STATED CONDITIONS: NCI-H209, 72 h
Items are presented alongside their recorded pIC50.
Note: pIC50 values are expressed as the negative base-10 logarithm of concentration in M.

Worked examples, 2 compounds total:
{"COMPOUND": "FC1(F)C2CCN(Cc3cc4c(cc3-c3cc5ccc6c(c5cn3)OCO6)OCO4)CC21 (centres undefined)", "pIC50": 4.51}
{"COMPOUND": "c1c(CN2CC3CCC(C2)O3)c(-c2cc3ccc4c(c3cn2)OCO4)cc2c1OCO2", "pIC50": 4.33}

Request body: readout pIC50, system NCI-H209, query `CC1(C)CCN(Cc2cc3c(cc2-c2cc4ccc5c(c4cn2)OCO5)OCO3)C1` . Return the value.
4.51

Request body: readout pIC50, system NCI-H209, query OC1CCCN(Cc2cc3c(cc2-c2cc4ccc5c(c4cn2)OCO5)OCO3)CC1 (centres undefined) . Return the value.
4.32

Request body: readout pIC50, system NCI-H209, query c1c(CN2CC3CC3C2)c(-c2cc3ccc4c(c3cn2)OCO4)cc2c1OCO2 (centres undefined) . Return the value.
4.28
